The origin of these recorded values is the RNAGym collection of RNA variant scans (doi:10.7554/elife.90254).

B1: OR4K15 (parent)
chain: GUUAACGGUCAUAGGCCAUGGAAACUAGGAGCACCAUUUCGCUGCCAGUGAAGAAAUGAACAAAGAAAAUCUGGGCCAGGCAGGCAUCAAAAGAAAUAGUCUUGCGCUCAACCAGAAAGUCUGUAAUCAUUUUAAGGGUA

Variants of: B1
assay_remarks: self-cleavage, relative activity (ratio to wild type); higher = more cleavage; in vitro, sequencing; the parent is a self-cleaving ribozyme
Rule: self-cleavage under 0.7 gives Condition not met, otherwise Condition met.

Use the examples below as a reference point.
> print(dat)
    alteration     assigned.class
1    A18G A24C      Condition met
2  U124G A125G  Condition not met
3   U70A U127C  Condition not met

Quick check, self-cleavage >= 0.7? A64U A114G Condition not met

Quick check, self-cleavage >= 0.7? C45A G99A Condition met

Quick check, self-cleavage >= 0.7? U87G Condition met
